Values were extracted from patent US20250340659A1.

A collection of binders and their measured % Signal Inhibition Rep3
Molecular target: T1, canine OX40L, full length membrane form, expressed on HEK293 cells (canine)
T1 chain: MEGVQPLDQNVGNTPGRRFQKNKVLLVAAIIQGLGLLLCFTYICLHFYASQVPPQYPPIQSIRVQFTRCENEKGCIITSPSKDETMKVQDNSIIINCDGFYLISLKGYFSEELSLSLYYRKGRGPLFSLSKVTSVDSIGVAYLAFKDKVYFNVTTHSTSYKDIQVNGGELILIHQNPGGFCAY
Test: cell-based or functional assay
Respond with the bare value in %.

Below, 3 binders whose answers are already recorded.
>  <binder>
PMX099 (antibody, V domains shown) VH: EVQLVESGGDLVRPGGSLRLSCVASGFTFSSYHMNWVRQAPGKGLQWVAFINSGGSSTTYADVVRGRFTISRDYAKNTLYLQMNSLRAEDTAVYYCASGSIWTHFDYWGQGTLVTVSS VL: SFVLTQLPSVSVTLRQTARITCGGDSIGTKSVYWYQQKLGQAPVLIIYRDSNRPTGIPERFSGASSGNTATLTISGALAEDEADYYCQVWDSSNKAMFGGGTHLTVL

>  <display_unit>
%

>  <% Signal Inhibition Rep3>
16.4

$$$$
>  <binder>
PMX107 (antibody, V domains shown) VH: AVQLVESGGDLVRPGGSLRLSCVASGFTFSSYHMNWVRQAPGKGLQWVAFINSGGSSTTYADVVRGRFTISRDYAKNTLFLQMNSLRAEDTAVYYCAIVSIWTHFDYWGQGTLVTVSS VL: SFVLTQLPSVSVTLRQTARITCGGDIIGSKNVYWYQQRLGQAPVLILYRDTNRPTGIPERFSGASSGNTATLTISGALAEDEADYYCQVWDNSNKAMFGGGTHLTVL

>  <display_unit>
%

>  <% Signal Inhibition Rep3>
-44

$$$$
>  <binder>
PMX033 (antibody, V domains shown, also called PMX33) VH: EVQLVESGGDLVKPGGSLRLSCVASGFTFSSYHMSWVRQAPGKGLQWVAYITSGGRTTSYADAVKGRFTISRDNAKNTLYLQMKSLRAEDTAVYYCASDLVLVLGGAEYWGQGTLVTVSS VL: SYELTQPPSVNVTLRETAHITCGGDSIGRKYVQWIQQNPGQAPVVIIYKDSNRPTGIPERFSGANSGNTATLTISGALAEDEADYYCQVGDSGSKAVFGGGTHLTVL

>  <display_unit>
%

>  <% Signal Inhibition Rep3>
55.4

$$$$

In the following, a different binder is considered.
If you can, please state the reported % Signal Inhibition Rep3 value of PMX059 (antibody, V domains shown, also called PMX59) VH: EVHLVESGGDLVKPEGSLRLSCVVSGFTFSNYVMNWVRQAPGKGLQWVAFISGDGRSTTYTDAVKSRFTISRDNAKNTLYLQMSSLRTEDTAIYFCAKEKYSSGWSFEYWGQGTLVTVSS VL: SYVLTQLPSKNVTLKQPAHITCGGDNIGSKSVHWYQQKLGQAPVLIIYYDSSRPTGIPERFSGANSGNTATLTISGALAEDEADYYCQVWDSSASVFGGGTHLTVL . 58
